Quick reference: Plant response rating, Deadnettle of the listed items.
Test system: deadnettle (henbit deadnettle, Lamium amplexicaule)
Assay: Test D controlled growth environment herbicide test, pre- and postemergence
Format: in vivo
Conditions: Preemergence, 250 g ai/ha; scale 0 to 100, 0 no effect, 100 complete control

>  <line-notation>
CC(=O)Oc1c(C)nn(C)c(=O)c1-c1c(C)sc2ccc(Cl)cc12

>  <Plant response rating, Deadnettle>
100

$$$$
>  <line-notation>
CCCC(=O)Oc1c(C)nn(C)c(=O)c1-c1c(C)sc2ccc(C)cc12

>  <Plant response rating, Deadnettle>
65

$$$$
>  <line-notation>
CCc1sc2ccc(C)cc2c1-c1c(O)c(C)nn(C)c1=O

>  <Plant response rating, Deadnettle>
65

$$$$
>  <line-notation>
Cc1ccc2sc(Br)c(-c3c(O)c(C)nn(C)c3=O)c2c1

>  <Plant response rating, Deadnettle>
90

$$$$
>  <line-notation>
Cc1cc(C)c2sc(C)c(-c3c(O)c(C)nn(C)c3=O)c2c1

>  <Plant response rating, Deadnettle>
55

$$$$

###

Tested on: oilseed rape (Brassica napus)
Assay: Test D controlled growth environment herbicide test, pre- and postemergence
Format: in vivo
Settings: Preemergence, 250 g ai/ha; scale 0 to 100, 0 no effect, 100 complete control

>  <line-notation>
Cc1nn(C)c(=O)c(-c2ccc(F)c3ccccc23)c1O

>  <target-desc>
oilseed rape (Brassica napus)

>  <Plant response rating, Oilseed Rape>
15

$$$$
>  <line-notation>
CCc1sc2c(C)cc(C)cc2c1-c1c(O)c(C)nn(C)c1=O

>  <target-desc>
oilseed rape (Brassica napus)

>  <Plant response rating, Oilseed Rape>
25

$$$$
>  <line-notation>
CC(=O)Oc1c(C)nn(C)c(=O)c1-c1c(C)sc2ccc(Cl)cc12

>  <target-desc>
oilseed rape (Brassica napus)

>  <Plant response rating, Oilseed Rape>
40

$$$$
>  <line-notation>
COC(=O)Oc1c(C)nn(C)c(=O)c1-c1c(C)sc2ccc(C)cc12

>  <target-desc>
oilseed rape (Brassica napus)

>  <Plant response rating, Oilseed Rape>
40

$$$$

###

Test system: crabgrass, Brazilian (Brazilian crabgrass, Digitaria horizontalis)
Assay: Test E greenhouse herbicide test, pre- and postemergence
Format: in vivo
Details: 125 g ai/ha, Postemergence; scale 0 to 100 (0 no effect, 100 complete control)

>  <compound>
CCCC(=O)Oc1c(C)nn(C)c(=O)c1-c1c(C)sc2ccc(C)cc12 [Compound 105]

>  <Plant response rating, Crabgrass, Brazil>
50

$$$$
>  <compound>
Cn1nc(Br)c(O)c(-c2cccc3ccccc23)c1=O [Compound 20]

>  <Plant response rating, Crabgrass, Brazil>
20

$$$$
>  <compound>
CCc1sc2ccc(C)cc2c1-c1c(O)c(C)nn(C)c1=O [Compound 47]

>  <Plant response rating, Crabgrass, Brazil>
25

$$$$
>  <compound>
Cc1nn(C)c(=O)c(-c2ccc(Br)c3ccccc23)c1O [Compound 75]

>  <Plant response rating, Crabgrass, Brazil>
50

$$$$
>  <compound>
CC(=O)Oc1c(C)nn(C)c(=O)c1-c1c(C)cc(C)c2ccccc12 [Compound 99]

>  <Plant response rating, Crabgrass, Brazil>
20

$$$$
>  <compound>
Cc1cc(C)c2sc(C)c(-c3c(O)c(C)nn(C)c3=O)c2c1 [Compound 2]

>  <Plant response rating, Crabgrass, Brazil>
10

$$$$
>  <compound>
Cc1nn(C)c(=O)c(-c2ccc(F)c3ccccc23)c1O [Compound 41]

>  <Plant response rating, Crabgrass, Brazil>
30

$$$$

meta.source: patent US10597388B2
